The following compounds are shown together with reported % Mortality 24 h values.
Test system: newly emerged larvae of Lucilia sericata, blowfly
Assay: Efficacy against blowfly larvae, treated paper/serum bioassay
Format: in vivo
Details: Conc. 2.0 ppm; 24 h; blowfly larvae

{"compound": "CC1(c2nn(-c3c(Cl)cc(C(F)(F)F)cc3Cl)cc2C#N)CC1(Br)Br (stereo not shown)", "% Mortality 24 h / %": 100}
{"compound": "CC1(c2nn(-c3c(Cl)cc(C(F)(F)F)cc3Cl)c(Br)c2C#N)CC1(Cl)Cl (stereo not shown)", "% Mortality 24 h / %": 100}
{"compound": "CC1(c2nn(-c3c(Cl)cc(C(F)(F)F)cc3Cl)c(N)c2C#N)CC1(Br)Br (stereo not shown)", "% Mortality 24 h / %": 95}
{"compound": "CC1C(Cl)(Cl)C1(C)c1nn(-c2c(Cl)cc(C(F)(F)F)cc2Cl)cc1C#N (stereo not shown)", "% Mortality 24 h / %": 0}

###

Test system: newly emerged larvae of Lucilia sericata, blowfly
Experiment: Efficacy against blowfly larvae, treated paper/serum bioassay
Assay type: in vivo
Conditions: Conc. 2.0 ppm; 48 h; blowfly larvae

{"molecule": "CC1C(Cl)(Cl)C1(C)c1nn(-c2c(Cl)cc(C(F)(F)F)cc2Cl)cc1C#N (centres unmarked) [Example 7]", "% Mortality 48 h [%]": 0}
{"molecule": "CC1(c2nn(-c3c(Cl)cc(C(F)(F)F)cc3Cl)c(Cl)c2C#N)CC1(Br)Br (centres unmarked) [Example 20]", "% Mortality 48 h [%]": 100}
{"molecule": "CC1(c2nn(-c3c(Cl)cc(Cl)cc3Cl)c(Br)c2C#N)CC1(Cl)Cl (centres unmarked) [Example 28]", "% Mortality 48 h [%]": 100}
{"molecule": "CC1(c2nn(-c3c(Cl)cc(C(F)(F)F)cc3Cl)c(N)c2C#N)CC1(Br)Br (centres unmarked) [Example 21]", "% Mortality 48 h [%]": 100}
{"molecule": "CC1(c2nn(-c3c(Cl)cc(Cl)cc3Cl)c(Cl)c2C#N)CC1(Cl)Cl (centres unmarked) [Example 27]", "% Mortality 48 h [%]": 100}
{"molecule": "CC1(c2nn(-c3c(Cl)cc(C(F)(F)F)cc3Cl)c(Br)c2C#N)CC1(Cl)Cl (centres unmarked) [Example 29]", "% Mortality 48 h [%]": 100}
{"molecule": "CC1(c2nn(-c3c(Cl)cc(C(F)(F)F)cc3Cl)cc2C#N)CC1(Br)Br (centres unmarked) [Example 14]", "% Mortality 48 h [%]": 100}
{"molecule": "CCOC=Nc1c(C#N)c(C2(C)CC2(Cl)Cl)nn1-c1c(Cl)cc(C(F)(F)F)cc1Cl (racemic) [Example 40]", "% Mortality 48 h [%]": 0}

###

Below, each entry is listed alongside its reported % Mortality 4 h.
Tested on: Ctenocephatides felis, adult cat fleas
Test: Contact activity against adult cat fleas, coated glass vial assay
Type: in vivo
Settings: Conc. 2 ug/cm2, 4 h

{"molecule": "CCOC=Nc1c(C#N)c(C2(C)CC2(Cl)Cl)nn1-c1c(Cl)cc(C(F)(F)F)cc1Cl (racemic)", "measureUnit": "%", "% Mortality 4 h": 0}
{"molecule": "CC1(c2nn(-c3c(Cl)cc(C(F)(F)F)cc3Cl)cc2C#N)CC1(Br)Br (centres unmarked)", "measureUnit": "%", "% Mortality 4 h": 10}
{"molecule": "CC1(c2nn(-c3c(Cl)cc(C(F)(F)F)cc3Cl)c(Cl)c2C#N)CC1(Cl)Cl (centres unmarked)", "measureUnit": "%", "% Mortality 4 h": 100}
{"molecule": "N#Cc1nn(-c2c(Cl)cc(C(F)(F)F)cc2Cl)c(N)c1[S+]([O-])C(F)(F)F (centres unmarked) [Standard, Fipronil, reference compound]", "measureUnit": "%", "% Mortality 4 h": 30}
{"molecule": "CN(C)c1c(C#N)c(C2(C)CC2(Cl)Cl)nn1-c1c(Cl)cc(C(F)(F)F)cc1Cl (centres unmarked)", "measureUnit": "%", "% Mortality 4 h": 0}
{"molecule": "CC1(c2nn(-c3c(Cl)cc(C(F)(F)F)cc3Cl)c(I)c2C#N)CC1(Cl)Cl (centres unmarked)", "measureUnit": "%", "% Mortality 4 h": 20}
{"molecule": "CC1C(Cl)(Cl)C1(C)c1nn(-c2c(Cl)cc(C(F)(F)F)cc2Cl)cc1C#N (centres unmarked)", "measureUnit": "%", "% Mortality 4 h": 0}
{"molecule": "CC1(c2nn(-c3c(Cl)cc(C(F)(F)F)cc3Cl)c(Br)c2C#N)CC1(Br)Br (centres unmarked)", "measureUnit": "%", "% Mortality 4 h": 0}

Where do the numbers come from? From patent US20060154923A1.
